target: Mouse histone methyltransferase G9a (969-1263) (Mus musculus, UniProt Q9Z148); construct: The 6His-sumo mG9a (969-1263) protein was purified using the following procedure; 6His-sumo (N, cleaved yes); made in house; host or cells: Escherichia coli BL21 (DE3); assay: MALDI-TOF methylation study of G9a enzymatic activity (H3 peptide, SAM); type: biochemical; conditions: Supplementary Table 1; inhibitor 5 μM, 30 min; average of 3 values
Sequence (Q9Z148 969-1263): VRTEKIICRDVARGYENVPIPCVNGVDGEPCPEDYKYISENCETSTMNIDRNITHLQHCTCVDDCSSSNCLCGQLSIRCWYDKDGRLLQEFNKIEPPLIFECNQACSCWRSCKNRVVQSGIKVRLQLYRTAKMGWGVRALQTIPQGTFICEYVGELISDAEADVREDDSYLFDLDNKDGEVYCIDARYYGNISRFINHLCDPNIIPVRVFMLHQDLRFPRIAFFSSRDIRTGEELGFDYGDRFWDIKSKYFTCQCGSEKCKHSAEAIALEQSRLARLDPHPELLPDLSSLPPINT
METRIC_NAME: inhibition at 5 µM (%)

COc1ccc2c(NC3CCN(C)CC3)nc(NCCNC(=O)CCCC(=O)NO)nc2c1 [Compound 16a] | 40.3
COc1cc2nc(NCCNC(=O)CCCCCC(=O)NO)nc(NC3CCN(C)CC3)c2cc1OC [Compound 5] | 65
COc1ccc2c(NCCNC(=O)CCCCCC(=O)NO)nc(N3CCCN(C)CC3)nc2c1 [Compound 22] | 40.3

[I] COc1cc2nc(NCCNC(=O)CCCCCC(=O)NO)nc(NC3CCN(C(C)C)CC3)c2cc1OC [Compound 5a]
[II] COc1ccc2c(NC3CCN(Cc4ccccc4)CC3)nc(NCCNC(=O)CCCCCC(=O)NO)nc2c1 [Compound 14]
Inquiry: Pick one, I or II : lowest reported inhibition at 5 µM. Answer with the label corresponding to your selection.
Reply text: II
(II: 29.7%, I: 47.5%)

====

Molecular target: Mouse histone methyltransferase G9a (969-1263) (Mus musculus, UniProt Q9Z148)
Construct: The 6His-sumo mG9a (969-1263) protein was purified using the following procedure; 6His-sumo (N, cleaved yes); made in house; host or cells: Escherichia coli BL21 (DE3)
Test: MALDI-TOF methylation study of G9a enzymatic activity (H3 peptide, SAM)
Format: biochemical
Conditions: Supplementary Table 1; inhibitor 5 μM, 30 min; average of 3 values
Procedure: Figure 3 compounds were synthesized from the commercially available starting material 1. […] Initially, we evaluated the G9a potential after the introduction of HDAC pharmacophore. […] The in vitro inhibition of G9a by the synthesized compounds were measured by MALDI-TOF mass spectrum (Bruker MALDI TOF/TOF Analyzer). […] The results of mass spectrum were analyzed using the Bruker flex analysis software, a detailed description of data processing is provided as supplementary information (S3). […]
METRIC_NAME: inhibition at 5 µM (%)

[P] COc1cc2nc(NCCNC(=O)CCCCC(=O)NO)nc(NC3CCN(C(C)C)CC3)c2cc1OC
[Q] COc1ccc2c(NCCNC(=O)CCCCCCC(=O)NO)nc(N3CCCN(C)CC3)nc2c1
Inquiry: Lowest inhibition at 5 µM? choose P or Q Selection: enter the item's label.
Reply text: Q

[1] COc1cc2nc(NCCNC(=O)CCCC(=O)NO)nc(NC3CCN(C)CC3)c2cc1OC
[2] COc1ccc2c(NC3CCN(Cc4ccccc4)CC3)nc(NCCNC(=O)CCCCC(=O)NO)nc2c1
Inquiry: Please let me know which one, 1 or 2 , has a lower measured inhibition at 5 µM value. Please indicate the selected item by its label.
Reply text: 1

====

molecular target: G9a (Homo sapiens, UniProt Q96KQ7); construct: endogenous in cells; assay: H3K9Me2 cell immunofluorescence In-Cell Western (ICW) assay in MDA-MB-231; settings: MDA-MB-231 cell line, 48 h exposure
Sequence (Q96KQ7 whole entry): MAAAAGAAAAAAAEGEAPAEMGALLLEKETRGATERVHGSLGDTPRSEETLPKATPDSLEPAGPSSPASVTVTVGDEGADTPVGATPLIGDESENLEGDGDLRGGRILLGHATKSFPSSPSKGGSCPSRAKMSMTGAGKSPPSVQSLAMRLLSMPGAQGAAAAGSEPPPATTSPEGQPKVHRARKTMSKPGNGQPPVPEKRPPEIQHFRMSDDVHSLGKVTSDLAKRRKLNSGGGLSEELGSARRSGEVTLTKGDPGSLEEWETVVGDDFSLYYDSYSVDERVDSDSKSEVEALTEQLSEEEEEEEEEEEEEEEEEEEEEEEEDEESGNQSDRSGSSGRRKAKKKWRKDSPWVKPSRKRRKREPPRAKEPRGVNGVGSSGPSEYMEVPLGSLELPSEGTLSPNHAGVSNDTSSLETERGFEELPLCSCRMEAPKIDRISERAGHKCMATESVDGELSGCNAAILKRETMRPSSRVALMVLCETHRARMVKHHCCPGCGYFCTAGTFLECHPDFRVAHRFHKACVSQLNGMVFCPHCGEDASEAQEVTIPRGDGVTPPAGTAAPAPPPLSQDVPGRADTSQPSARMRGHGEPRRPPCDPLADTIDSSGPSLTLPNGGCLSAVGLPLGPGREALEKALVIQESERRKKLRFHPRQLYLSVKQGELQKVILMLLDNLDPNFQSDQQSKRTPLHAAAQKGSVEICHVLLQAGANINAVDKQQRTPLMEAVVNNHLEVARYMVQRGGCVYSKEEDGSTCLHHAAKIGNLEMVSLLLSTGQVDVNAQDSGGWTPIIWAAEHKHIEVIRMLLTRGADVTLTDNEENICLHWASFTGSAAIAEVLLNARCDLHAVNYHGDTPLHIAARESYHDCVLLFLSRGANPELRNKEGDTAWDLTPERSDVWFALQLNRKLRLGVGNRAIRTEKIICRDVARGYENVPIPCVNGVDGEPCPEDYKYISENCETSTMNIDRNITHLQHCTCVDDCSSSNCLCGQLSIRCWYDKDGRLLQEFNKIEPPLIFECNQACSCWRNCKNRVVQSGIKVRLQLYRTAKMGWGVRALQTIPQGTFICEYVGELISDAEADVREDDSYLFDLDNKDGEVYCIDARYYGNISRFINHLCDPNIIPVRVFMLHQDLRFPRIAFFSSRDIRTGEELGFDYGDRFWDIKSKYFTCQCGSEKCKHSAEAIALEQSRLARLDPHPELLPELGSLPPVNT
METRIC_NAME: IC50 (µM)

COc1cc2nc(N3CCCN(C)CC3)nc(NC3CCN(C(=O)CCCCCCC(=O)NO)CC3)c2cc1OC | 99.6
COc1cc2nc(NCCNC(=O)CCCCCCC(=O)NO)nc(NC3CCN(C(C)C)CC3)c2cc1OC | 74.2
COc1cc2nc(NCCNC(=O)CCCC(=O)NO)nc(NC3CCN(C(C)C)CC3)c2cc1OC | 54.6
COc1ccc2c(NC3CCN(Cc4ccccc4)CC3)nc(NCCNC(=O)CCCCC(=O)NO)nc2c1 | 72.1

Numbers sourced from paper PMC5609913.
